Source listed as patent US20110112099A1.

Tested on: KMS-11/Bor (bortezomib-resistant KMS-11 cells)
assay.name: Test for the growth inhibition to KMS-11/Bor (WST-1, 72 hours)
Type: cell-based, human
assay.conditions: Homo sapiens; KMS-11/Bor cells, 72 hours, WST-1; read-out: IC50 KMS-11/Bor (growth-inhibitory effect, viable cell number)
Where a SMILES comes first, the peptide text is derived from it. The star is where a group is joined. Cbz = O=C(OCc1ccccc1)*
assay.endpoint: IC50 (nM)
Reply numerically in nM, unit not repeated.

GET /values?item= CC(C)C[C@H](NC(=O)[C@H](Cc1ccccc1)NC(=O)c1cnccn1)B(O)O [Bortezomib, bortezomib] &system= KMS-11/Bor (bortezomib-resistant KMS-11 cells) returns IC50: 170

Fill in: KMS-11/Bor (bortezomib-resistant KMS-11 cells) IC50 for CC(C)C[C@@H](C=O)NC(=O)[C@H](CC(C)C)NC(=O)[C@H](CC(C)C)NC(=O)OCc1ccccc1 [MG-132] (Cbz-Leu-Leu-Leu-aldehyde) = 2000
